Attribution: ChEMBL document CHEMBL1153843

For each of the molecules below, state its MIC.
- System: Escherichia coli
- measurement protocol: Antibacterial activity against Escherichia coli after 24 hrs by MTT method
- Type: functional

test smiles | system tested | MIC
O=c1cc(-c2ccc3c(c2)OCCO3)oc2cc(OCCBr)cc(O)c12 | Escherichia coli | 25 µg/mL
O=c1cc(-c2ccc3c(c2)OCCO3)oc2cc(OCCNCCO)cc(O)c12 | Escherichia coli | 25 µg/mL
O=c1cc(-c2ccc3c(c2)OCCO3)oc2cc(OCCN3CCCCC3)cc(O)c12 | Escherichia coli | 12.5 µg/mL
O=c1cc(-c2ccc3c(c2)OCCO3)oc2cc(OCCNC3CCCC3)cc(O)c12 | Escherichia coli | 25 µg/mL
CCCCNCCOc1cc(O)c2c(=O)cc(-c3ccc4c(c3)OCCO4)oc2c1 | Escherichia coli | 25 µg/mL

For each of the items listed, what is its MIC?
1. O=c1cc(-c2ccc3c(c2)OCCO3)oc2cc(OCCNCCN3CCOCC3)cc(O)c12
2. O=c1cc(-c2ccc3c(c2)OCCO3)oc2cc(OCCNCc3ccc(F)cc3)cc(O)c12
3. O=c1cc(-c2ccc3c(c2)OCCO3)oc2cc(OCCNCCCN3CCOCC3)cc(O)c12
4. CN1CCN(CCOc2cc(O)c3c(=O)cc(-c4ccc5c(c4)OCCO5)oc3c2)CC1
5. O=c1cc(-c2ccc3c(c2)OCCO3)oc2cc(OCCN3CCCC3)cc(O)c12

1: 12.5 µg/mL; 2: 12.5 µg/mL; 3: 6.25 µg/mL; 4: 12.5 µg/mL; 5: 12.5 µg/mL

###

- Test system: Bacillus subtilis
- measurement protocol: Antibacterial activity against Bacillus subtilis after 24 hrs by MTT method
- Type: functional
For each of the molecules below, state its MIC.
Give bare numbers, in µg/mL.

For each of the items listed, what is its MIC?
1. CC1(C)S[C@@H]2[C@H](NC(=O)Cc3ccccc3)C(=O)N2[C@H]1C(=O)O
2. O=c1cc(-c2ccc3c(c2)OCCO3)oc2cc(OCCNCCN3CCOCC3)cc(O)c12

[1.56, 1.56]

For each of the items listed, what is its MIC?
1. CN1CCN(CCOc2cc(O)c3c(=O)cc(-c4ccc5c(c4)OCCO5)oc3c2)CC1
2. CCCNCCOc1cc(O)c2c(=O)cc(-c3ccc4c(c3)OCCO4)oc2c1
3. O=c1cc(-c2ccc3c(c2)OCCO3)oc2cc(OCCBr)cc(O)c12
4. O=c1cc(-c2ccc3c(c2)OCCO3)oc2cc(OCCN3CCCC3)cc(O)c12
5. O=c1cc(-c2ccc(O)c(O)c2)oc2cc(O)cc(O)c12
6. O=c1cc(-c2ccc3c(c2)OCCO3)oc2cc(OCCN3CCNCC3)cc(O)c12
7. O=c1cc(-c2ccc3c(c2)OCCO3)oc2cc(OCCN3CCOCC3)cc(O)c12

[6.25, 12.5, 12.5, 6.25, 25, 6.25, 3.12]

For each of the items listed, what is its MIC?
1. CC(C)CNCCOc1cc(O)c2c(=O)cc(-c3ccc4c(c3)OCCO4)oc2c1
2. O=c1cc(-c2ccc3c(c2)OCCO3)oc2cc(OCCNCc3ccccc3)cc(O)c12

1: 12.5; 2: 3.12

For each of the items listed, what is its MIC?
1. O=c1cc(-c2ccc3c(c2)OCCO3)oc2cc(OCCNC3CCCCC3)cc(O)c12
2. O=c1cc(-c2ccc3c(c2)OCCO3)oc2cc(OCCNCCCN3CCOCC3)cc(O)c12

6.25
1.56

###

For each of the molecules below, state its MIC.
- Test system: Escherichia coli
- measurement protocol: Antibacterial activity against Escherichia coli after 24 hrs by MTT method
- Type: functional
Numbers only, in µg/mL.

test smiles | parameter measured | recorded number
O=c1cc(-c2ccc(O)c(O)c2)oc2cc(O)cc(O)c12 | MIC | 50
CC(C)CNCCOc1cc(O)c2c(=O)cc(-c3ccc4c(c3)OCCO4)oc2c1 | MIC | 25

Query molecule follows.
For this molecule ( `O=c1cc(-c2ccc3c(c2)OCCO3)oc2cc(O)cc(O)c12` ), measured MIC is 50

###

For each of the compounds below, state its MIC.
- Test system: Escherichia coli
- measurement protocol: Antibacterial activity against Escherichia coli after 24 hrs by MTT method
- Format: functional
Numbers only, in µg/mL.

Worked examples follow.
test smiles | parameter measured | recorded number
O=c1cc(-c2ccc3c(c2)OCCO3)oc2cc(OCCN3CCNCC3)cc(O)c12 | MIC | 12.5
CCCNCCOc1cc(O)c2c(=O)cc(-c3ccc4c(c3)OCCO4)oc2c1 | MIC | 25
CCCN(CCC)CCOc1cc(O)c2c(=O)cc(-c3ccc4c(c3)OCCO4)oc2c1 | MIC | 25
O=c1cc(-c2ccc3c(c2)OCCO3)oc2cc(OCCN3CCOCC3)cc(O)c12 | MIC | 12.5

Query compound follows.
For this compound ( `CCN(CC)CCOc1cc(O)c2c(=O)cc(-c3ccc4c(c3)OCCO4)oc2c1` ), measured MIC is 25

###

- Tested on: Escherichia coli
- measurement protocol: Antibacterial activity against Escherichia coli after 24 hrs by MTT method
- Type: functional
For each of the molecules below, state its MIC.
Numbers only, in µg/mL.

Worked examples follow.
test smiles | output unit | MIC
O=c1cc(-c2ccc3c(c2)OCCO3)oc2cc(OCCNCc3ccccc3)cc(O)c12 | µg/mL | 12.5
NC[C@H]1O[C@H](O[C@H]2[C@H](O)[C@@H](O[C@H]3O[C@H](CO)[C@@H](O)[C@H](N)[C@H]3O)[C@H](N)C[C@@H]2N)[C@H](N)[C@@H](O)[C@@H]1O | µg/mL | 3.12
CC1(C)S[C@@H]2[C@H](NC(=O)Cc3ccccc3)C(=O)N2[C@H]1C(=O)O | µg/mL | 6.25

Query molecule follows.
Tested on Escherichia coli, the item `O=c1cc(-c2ccc3c(c2)OCCO3)oc2cc(OCCNC3CCCCC3)cc(O)c12` showed MIC equal to 25

###

- System: Bacillus subtilis
- measurement protocol: Antibacterial activity against Bacillus subtilis after 24 hrs by MTT method
- Type: functional
For each of the compounds below, state its MIC.
One number for each entry, in µg/mL.

Worked examples follow.
test smiles | MIC / µg/mL
O=c1cc(-c2ccc3c(c2)OCCO3)oc2cc(OCCNC3CCCC3)cc(O)c12 | 6.25
CCCN(CCC)CCOc1cc(O)c2c(=O)cc(-c3ccc4c(c3)OCCO4)oc2c1 | 12.5

For each of the items listed, what is its MIC?
1. O=c1cc(-c2ccc3c(c2)OCCO3)oc2cc(OCCNCCO)cc(O)c12
2. O=c1cc(-c2ccc3c(c2)OCCO3)oc2cc(OCCNCc3ccc(F)cc3)cc(O)c12
3. CCN(CC)CCOc1cc(O)c2c(=O)cc(-c3ccc4c(c3)OCCO4)oc2c1
4. NC[C@H]1O[C@H](O[C@H]2[C@H](O)[C@@H](O[C@H]3O[C@H](CO)[C@@H](O)[C@H](N)[C@H]3O)[C@H](N)C[C@@H]2N)[C@H](N)[C@@H](O)[C@@H]1O
5. O=c1cc(-c2ccc3c(c2)OCCO3)oc2cc(O)cc(O)c12
6. CCCCNCCOc1cc(O)c2c(=O)cc(-c3ccc4c(c3)OCCO4)oc2c1
7. O=c1cc(-c2ccc3c(c2)OCCO3)oc2cc(OCCN3CCCCC3)cc(O)c12

12.5
1.56
12.5
0.39
12.5
12.5
6.25
